System: HOP-62 NSCLC
Assay: NCI tumour cell line growth inhibition, 48 h
endpoint.label: TGI

Study these solved cases before continuing.
# compound, result
rows = [
    ("CN1CCc2c([nH]c3ccccc23)C1", "> 100 µM"),
    ("O=[N+]([O-])c1ccc2[nH]c(=S)[nH]c(=S)c2c1", "> 100 µM"),
    ("CC(C)C(CCl)NC(=O)c1cccc(C(=O)N[C@H](CCl)C(C)C)n1 (stereo in doubt)", "> 100 µM"),
]

The reported value for C[n+]1c2ccc(Cl)cc2nc2cc(-c3ccccc3)ccc21 in terms of TGI is > 100 µM

The reported value for O=c1oc2ccccc2cc1-c1cc2ccccn2c1 in terms of TGI is > 100 µM

Hey, just so you know, these numbers are from PubChem BioAssay (NCI).
